The measured values listed here are drawn from the supplement of paper PMC6658780.

- System: Escherichia coli ATCC BAA-2469
- assay summary: percent growth inhibition of drug alone vs DMSO control; higher = more growth inhibition
- experimental parameters: antibiotic (0.125x MIC): none (0.1% DMSO); 7 µM
Counter-ions that a name gives are not always drawn.
observable: percent growth inhibition of drug alone (%)

In [3]: df
Out[3]:
                                   compound  test_result
0  CCC[C@@H]1C[C@@H](C(=O)N[C@@H]([C@H]2O[C@H](SC)[C@H](O)[C@@H](O)[C@H]2O)[C@H](C)Cl)N(C)C1 [Clindamycin hydrochloride]         12.8
1  CC(=O)c1ccc2c(c1)N(CCCN1CCC(CCO)CC1)c1ccccc1S2        0.548
2                       CCOC(=O)c1ccc(N)cc1       -0.533
3  CCCCCCCCCCCCCCCC[N+](C)(C)CCN(Cc1ccc(OC)cc1)c1ncccn1 [Thonzonium bromide]          3.7
4  Cc1cccc(C)c1NC(=O)C1CCCCN1C (centres undefined) [Mepivacaine hydrochloride]       -0.605
5  O=C(Nc1ccc([N+](=O)[O-])cc1Cl)c1cc(Cl)ccc1O [Niclosamide]         2.78
6         NC(=O)N/N=C/c1ccc([N+](=O)[O-])o1          5.6
7  Cc1c(OCC(F)(F)F)ccnc1C[S+]([O-])c1nc2ccccc2[nH]1 (centres undefined)         2.04
8            CCCOc1ccc2[nH]c(NC(=O)OC)nc2c1        0.775

###

Parameter percent growth inhibition: see the listing below.
- System: Escherichia coli ATCC BAA-2469
- assay summary: percent growth inhibition of drug + antibiotic vs DMSO control; higher = more growth inhibition
- experimental parameters: antibiotic (0.125x MIC): meropenem; 7 µM
Where a name gives a salt, the structure may show the parent alone.
observable: percent growth inhibition (%)

                                   molecule  uom  test_result
0  N[C@@H]1CCCCN(c2c(F)cc3c(=O)c(C(=O)O)cn(C4CC4)c3c2Cl)C1 [Besifloxacin hydrochloride]    %         2.23
1  Cc1cc(N)c2ccccc2[n+]1CCCCCCCCCC[n+]1c(C)cc(N)c2ccccc21 [Dequalinium dichloride]    %        -1.34
2  CCCCCCCCCCCCCCCC[N+](C)(C)CCN(Cc1ccc(OC)cc1)c1ncccn1 [Thonzonium bromide]    %        -2.72

###

- Tested on: Escherichia coli ATCC BAA-2469
- assay summary: percent growth inhibition of drug + antibiotic vs DMSO control; higher = more growth inhibition
- experimental parameters: antibiotic (0.125x MIC): ciprofloxacin; 7 µM
Parameter percent growth inhibition: see the listing below.
observable: percent growth inhibition (%)

molecule	observable	test result
C[C@H]1[C@H](NC(=O)/C(=N\OC(C)(C)C(=O)O)c2csc(N)n2)C(=O)N1S(=O)(=O)O	percent growth inhibition	0.0872
CO[C@H]1/C=C/O[C@@]2(C)Oc3c(C)c(O)c4c(O)c(c(/C=N/N5CCN(C)CC5)c(O)c4c3C2=O)NC(=O)/C(C)=C\C=C\[C@H](C)[C@H](O)[C@@H](C)[C@@H](O)[C@@H](C)[C@H](OC(C)=O)[C@@H]1C	percent growth inhibition	13.5
C#C[C@]1(OC(C)=O)CC[C@H]2[C@@H]3CCC4=C[C@@H](OC(C)=O)CC[C@@H]4[C@H]3CC[C@@]21C [Ethynodiol diacetate]	percent growth inhibition	5.09
Nc1nc(F)nc2c1ncn2[C@@H]1O[C@H](CO)[C@@H](O)[C@@H]1O	percent growth inhibition	36.5
Nc1ncn(C2OC(CO)C(O)C2O)c(=O)n1 (stereo unspecified)	percent growth inhibition	99.1
COC(=O)N/N=C/c1c[n+]([O-])c2ccccc2[n+]1[O-]	percent growth inhibition	35.2

###

- Test system: Klebsiella pneumoniae NCTC-13439
- assay summary: percent growth inhibition of drug + antibiotic vs DMSO control; higher = more growth inhibition
- experimental parameters: antibiotic (0.125x MIC): ciprofloxacin; 7 µM
Parameter percent growth inhibition: see the listing below.
observable: percent growth inhibition (%)

                                   compound                 observable  test_result
0       CC(=O)CCCCn1c(=O)c2c(ncn2C)n(C)c1=O  percent growth inhibition         2.24
1  NC1CCN(c2c(F)cc3c(=O)c(C(=O)O)cn(C4CC4)c3c2Cl)C1 (stereo not given)  percent growth inhibition         13.8
2  CC(=O)OC[C@H]1O[C@@H]([S-])[C@H](OC(C)=O)[C@@H](OC(C)=O)[C@@H]1OC(C)=O.CCP(CC)CC.[Au+]  percent growth inhibition         10.8
3  N=C(NCCCCCCNC(=N)NC(=N)Nc1ccc(Cl)cc1)NC(=N)Nc1ccc(Cl)cc1  percent growth inhibition         38.3
4  O=C(O)c1cn(-c2ccc(F)cc2)c2cc(N3CCNCC3)c(F)cc2c1=O  percent growth inhibition         59.2

###

- Test system: Klebsiella pneumoniae KPC-119
- assay summary: percent growth inhibition of drug alone vs DMSO control; higher = more growth inhibition
- experimental parameters: antibiotic (0.125x MIC): none (0.1% DMSO); 7 µM
Structures can show the parent of a compound that is named as a salt.
Parameter percent growth inhibition of drug alone: see the listing below.

molecule	percent growth inhibition of drug alone
CC(=O)OCC(=O)[C@@]1(O)CC[C@H]2[C@@H]3CCC4=CC(=O)CC[C@]4(C)[C@@]3(F)[C@@H](O)C[C@@]21C [Fludrocortisone acetate]	1.64%
Oc1c(Cl)cc(Cl)c(Cl)c1Cc1c(O)c(Cl)cc(Cl)c1Cl	0.779%
CCN1CCC[C@H]1CNC(=O)c1c(O)c(Cl)cc(Cl)c1OC [Raclopride]	-0.791%
CCCCOC(=O)c1ccc(N)cc1	-0.672%
CC(=O)OC[C@H]1O[C@@H]([S-])[C@H](OC(C)=O)[C@@H](OC(C)=O)[C@@H]1OC(C)=O.CCP(CC)CC.[Au+]	10%
CCCCCCCCCCCCCCCC[N+](C)(C)CCN(Cc1ccc(OC)cc1)c1ncccn1 [Thonzonium bromide]	-1.94%
CO[C@@H]1[C@@H](OC(N)=O)[C@@H](O)[C@H](Oc2ccc3c(O)c(NC(=O)c4ccc(O)c(CC=C(C)C)c4)c(=O)oc3c2C)OC1(C)C [Novobiocin sodium salt]	0.874%
CC1=C(/C=C/C(C)=C/C=C/C(C)=C/C(=O)O)C(C)(C)CCC1	1.08%
COc1cnc(NS(=O)(=O)c2ccc(N)cc2)nc1	-1.55%
O=C1NCN(c2ccccc2)C12CCN(CCCC(c1ccc(F)cc1)c1ccc(F)cc1)CC2	-0.668%
C[C@H]1c2cccc(O)c2C(=O)C2=C(O)[C@]3(O)C(=O)C(C(N)=O)=C(O)[C@@H](N(C)C)[C@@H]3[C@@H](O)[C@@H]21 [Doxycycline hydrochloride]	15.8%
COc1cccc2c1C(=O)c1c(O)c3c(c(O)c1C2=O)C[C@@](O)(C(C)=O)C[C@@H]3O[C@H]1C[C@H](N)[C@H](O)[C@H](C)O1 [Daunorubicin hydrochloride]	5%
CC(C)NC[C@H](O)COc1ccc(CC(N)=O)cc1 [(S)-(-)-Atenolol]	0.932%
CC(C)(C)CC(C)(C)c1ccc(OCCOCC[N+](C)(C)Cc2ccccc2)cc1 [Benzethonium chloride]	2.21%
COc1nc(C)nc(Cl)c1NC1=NCCN1	-0.572%
CC(C)NCC(O)c1ccc(O)c(O)c1 (single isomer, unassigned; (-)) [(-)-Isoproterenol hydrochloride]	0.335%
CC1CCc2c(N3CCC(O)CC3)c(F)cc3c(=O)c(C(=O)O)cn1c23 (centres undefined)	6.2%
C=C1c2c(Cl)ccc(O)c2C(=O)C2=C(O)[C@]3(O)C(=O)C(C(N)=O)=C(O)[C@@H](N(C)C)[C@@H]3[C@@H](O)[C@H]12.O=C(O)c1cc(S(=O)(=O)O)ccc1O [Meclocycline sulfosalicylate]	2.09%
C/C(=C\C(=O)OCCCCCCCCC(=O)O)C[C@@H]1OC[C@H](C[C@@H]2O[C@H]2[C@@H](C)[C@H](C)O)[C@@H](O)[C@H]1O	1.64%
NC[C@@H]1O[C@H](O[C@H]2[C@@H](O)[C@H](O[C@@H]3[C@@H](O)[C@H](N)C[C@H](N)[C@H]3O[C@H]3O[C@H](CO)[C@@H](O)[C@H](O)[C@H]3N)O[C@@H]2CO)[C@H](N)[C@@H](O)[C@@H]1O [Paromomycin sulfate]	-0.033%
CCCCCCCCNC(C)C(O)c1ccc(SC(C)C)cc1 (centres undefined)	-1.6%
CO/N=C(\C(=O)N[C@@H]1C(=O)N2C(C(=O)O)=C(C[N+]3(C)CCCC3)CS[C@H]12)c1csc(N)n1 [Cefepime hydrochloride]	3.95%
CC[C@H]1OC(=O)[C@H](C)[C@@H](O[C@H]2C[C@@](C)(OC)[C@@H](O)[C@H](C)O2)[C@H](C)[C@@H](O[C@@H]2O[C@H](C)C[C@H](N(C)C)[C@H]2O)[C@](C)(OC)C[C@@H](C)C(=O)[C@H](C)[C@@H](O)[C@]1(C)O	0.744%
CC(C)Nc1cccnc1N1CCN(C(=O)c2cc3cc(NS(C)(=O)=O)ccc3[nH]2)CC1	-0.164%
